- Test system: human platelets
- Method: Platelet toxicity assay (MTS viability)
- Assay type: cell-based
- Condition parameters: Homo sapiens, Platelet, 48 h, Table 3; human platelets; 48 h; mean of two independent experiments in triplicates; read-out: Platelets 48 h IC50
- Procedure: Platelet-rich plasma (PRP) was purchased from Life South Community Blood Centers (Gainesville, FL, USA). PRP was transferred into a 50 mL tube containing 5 mL of the acid citrate buffer (Cat. No. sc-214744, Santa Cruz Biotechnology). […] Then, the platelet number was counted using a HEMAVET 950FS hematology analyzer (Drew Scientific, Inc., Oxford, CT, USA). […] The data were analyzed by the GraphPad Prism 7 software for the calculation of IC50 values.
pIC50: −log10 of the molar value.
Consider the following compounds and their measured pIC50 readings.

Compound	pIC50
CC1(C)CCC(c2ccc(Cl)cc2)=C(CN2CCN(c3ccc(C(=O)NS(=O)(=O)c4ccc(N[C@H](CCN5CCOCC5)CSc5ccccc5)c(S(=O)(=O)C(F)(F)F)c4)cc3)CC2)C1 [ABT-263, navitoclax, reference compound]	6.51
Cc1ncsc1-c1ccc([C@H](C)NC(=O)[C@@H]2C[C@@H](O)CN2C(=O)[C@@H](NC(=O)CCCCCCC(=O)N2CCN(C[C@]3(C)CCC(c4ccc(Cl)cc4)=C(CN4CCN(c5ccc(C(=O)NS(=O)(=O)c6ccc(N[C@H](CCN7C[C@H]8C[C@@H]7CO8)CSc7ccccc7)c(S(=O)(=O)C(F)(F)F)c6)cc5)CC4)C3)CC2)C(C)(C)C)cc1 [Compound 66]	6.07
